tgt: T1, BAH domain of human BAHD1 (residues 589-780), wild type (human, UniProt Q8TBE0 589-780)
T1 construct: BAHD1 (bromo adjacent homology domain containing protein 1), human, BAH domain, residues 589-780 of the full-length protein (1-780); also called BAH589-780; BAH_(BAHD1); source: E. coli BL21 (DE3), purified (HisTrap, tag cleaved by ULP1, Superdex G75); not shown: 10xHis-SUMO, N-terminal, cleaved
T1 sequence (looked up): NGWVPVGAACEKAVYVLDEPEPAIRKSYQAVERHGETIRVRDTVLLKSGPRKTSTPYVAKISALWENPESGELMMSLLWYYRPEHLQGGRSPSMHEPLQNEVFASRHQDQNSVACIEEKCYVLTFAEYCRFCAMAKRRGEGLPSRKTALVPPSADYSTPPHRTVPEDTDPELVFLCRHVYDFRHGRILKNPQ
methodSummary: ITC; BAH domain (wild type or mutant) titrated with histone peptide; 15 °C, MicroCal iTC200; 20 mM Tris pH 8.5, 500 mM (NH)2SO4, 5% glycerol; "One Set of Binding Sites" fitting model
conditionDetails: both partners purified
No end group written: not given here. me3 = trimethyl on lysine side chain
readoutKind: Kd (µM)
Entry rule: numbers only, all in µM.

Input: # return recorded Kd for input QLATKAARKSAPATGG (trimethyl-lysine at K27 (K(me3)), histone H3, residues 19-34 (A31: as in H3.1/H3.2); source: synthetic peptide (SciLight Biotechnology)) [histone H3 (19-34) K27me3 peptide]
Output: 61.3

Input: # return recorded Kd for input ATKAARK(me3)SAPAT (histone H3, residues 21-32 (A31: as in H3.1/H3.2); source: synthetic peptide (SciLight Biotechnology)) [histone H3 (21-32) K27me3 peptide]
Output: 124

Source listed as paper PMC4791424.
